- Experimental System: UniProt Q70CQ3
- Sequence (Q70CQ3 whole entry): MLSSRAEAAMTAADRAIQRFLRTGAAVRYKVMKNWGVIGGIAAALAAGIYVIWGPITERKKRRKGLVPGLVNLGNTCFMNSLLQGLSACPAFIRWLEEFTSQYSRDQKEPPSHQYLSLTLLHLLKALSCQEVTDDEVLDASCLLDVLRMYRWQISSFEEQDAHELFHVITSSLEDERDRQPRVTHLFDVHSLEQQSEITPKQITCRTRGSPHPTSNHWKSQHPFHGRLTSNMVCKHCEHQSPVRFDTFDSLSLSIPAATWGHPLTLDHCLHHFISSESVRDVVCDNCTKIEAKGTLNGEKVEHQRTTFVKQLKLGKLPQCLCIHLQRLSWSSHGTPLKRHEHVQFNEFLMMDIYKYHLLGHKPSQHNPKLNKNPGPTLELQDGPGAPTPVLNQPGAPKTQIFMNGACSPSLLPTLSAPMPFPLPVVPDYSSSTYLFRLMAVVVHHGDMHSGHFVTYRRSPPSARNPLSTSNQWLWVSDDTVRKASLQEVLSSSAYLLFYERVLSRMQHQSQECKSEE
pIC50: −log10 of the molar value.
Measurement Type: pIC50

- CN1c2ccc(-c3ccccc3)cc2CN([C@@H]2CCN(C#N)C2)S1(=O)=O: 6.00 to 7.00
- CN1c2ccccc2CN([C@@H]2CCN(C#N)C2)S1(=O)=O: 5.00 to 6.00
- N#CN1CC[C@@H](N2Cc3ccnc(N4CCOCC4)c3NS2(=O)=O)C1: 5.00 to 6.00

Measured values drawn from ChEMBL document CHEMBL4418303 for this set.
